System: Enterococcus faecium
Assay: Antibacterial activity against Enterococcus faecium ATCC 19434
Format: functional
recorded-endpoint: MIC

Would you please look over these solved cases?
>>> observed_value("CCCCCCCCCCCCCCCCC[C@@H]1CN[C@@H]([C@H](O[C@@H]2O[C@H](CN)[C@@H](O)[C@H]2O)[C@H]2O[C@@H](n3ccc(=O)[nH]c3=O)[C@H](O)[C@@H]2O)C(=O)N(C)[C@@H]1C(=O)O")
"8 µg/mL"
>>> observed_value("CC(=O)N[C@H]1CCN[C@H]([C@H](O[C@@H]2O[C@H](CN)[C@@H](O)[C@H]2O)[C@H]2O[C@@H](n3ccc(=O)[nH]c3=O)[C@H](O)[C@@H]2O)C1")
"> 64 µg/mL"

Let us examine a further case.
# value lookup — system Enterococcus faecium, readout MIC, item CC(=O)N[C@@H]1CCN[C@H]([C@H](O[C@@H]2O[C@H](CN)[C@@H](O)[C@H]2O)[C@H]2O[C@@H](n3ccc(=O)[nH]c3=O)[C@H](O)[C@@H]2O)C1
> 64 µg/mL
